# Test system: HEK-293T
# assay: Incucyte cell viability with HEK293T; also: unitless GR value; below 1 slowed growth and below 0 cell loss
# Type: toxicity, cell-based
# condition_details: human, 24 h, 10 µM, compound concentration 10 uM, replicate number 1
Field: class. Source value: Growth Rate. Ranges: L: < 0.3; M: ≥ 0.3 and < 0.8; H: ≥ 0.8

molecule	classification
O=C1CSC(=O)N1C(CCc1ccncc1)COc1ccc(-c2cccc([N+](=O)[O-])c2)cc1 (centres undefined)	H
Cc1cc(-c2ccnc(Nc3cnn(C)c3)n2)ccc1CNC(=O)N1CC(OC(C)C)C1	H
CN(CCCCCCC1=C(c2cc(F)cc(F)c2)CCCc2cc(O)ccc21)CCCCS(=O)(=O)CCCC(F)(F)F	L
Cc1cc(O)c(-c2ccc([C@@H](C)CN(C)C)cc2)c2c1[nH]c(=O)c1sccc12	L
Cn1cc(-n2cnc3c(NCc4nc5cc(Cl)c(Cl)cc5[nH]4)nc(N4CCOCC4)nc32)cn1	L

Which of the defined bands does the recorded Growth Rate of CC(=O)c1c(C)c2cnc(Nc3ccc(N4CCN(CCCCNC(=O)COc5cccc6c5C(=O)N(C5CCC(=O)NC5=O)C6=O)CC4)cn3)nc2n(C2CCCC2)c1=O (centres undefined) sit within?
H

---

# Tested on: Fibroblast
# assay: Incucyte cell viability with human fibroblast; also: unitless GR value; below 1 slowed growth and below 0 cell loss
# Assay type: toxicity, cell-based
# condition_details: 0 h, 10 µM, compound concentration 10 uM, replicate number 2
measure_name: Growth Rate

compound	measure_name	reported_value
Nc1nccc(-c2c(-c3ccc(F)cc3)ncn2C2CCN(Cc3ccon3)CC2)n1	Growth Rate	-0.11

What measured Growth Rate is associated with CN[C@@H](C)C/C=C/c1cncc(OC(C)C)c1 on Fibroblast?
-0.46

---

Quick reference: Growth Rate of the listed items.
# Test system: U2OS
# assay: Incucyte cell viability with U2OS; also: unitless GR value; below 1 slowed growth and below 0 cell loss
# Assay type: toxicity, cell-based
# condition_details: human, 0 h, 10 µM, compound concentration 10 uM, replicate number 1

Examples from the recorded data:
molecule	Growth Rate
O=C1NC(=Nc2c(Cl)cccc2Cl)S/C1=C\c1ccc2nccnc2c1	0.01
C[C@]12CC[C@H](O)CC1=CC[C@@H]1[C@@H]2CC[C@]2(C)C(n3cnc4ccccc43)=CC[C@@H]12 [GALETERONE]	-0.4
CCOC(=O)c1ncn2c1[C@@H]1CCCN1C(=O)c1cc(OC)ccc1-2	-0.46
Cc1nc(-c2ccc(C(F)(F)F)cc2)sc1C(=O)NCc1ccc(OC(C)(C)C(=O)O)cc1 [GW590735]	-0.11

// returns reported Growth Rate for input CCc1cnn2c(NCc3ccc[n+]([O-])c3)cc(N3CCCCC3CCO)nc12 (stereo not drawn)
-0.62

---

Attribute: Growth Rate
# Tested on: HEK-293T
# assay: Incucyte cell viability with HEK293T; also: unitless GR value; below 1 slowed growth and below 0 cell loss
# Format: toxicity, cell-based
# condition_details: human, 18 h, 10 µM, compound concentration 10 uM, replicate number 2

Guide cases for Growth Rate, answers given:
compound	Growth Rate
O=C1Nc2ccc(C(=O)c3ccco3)cc2C1=Cc1cc(Cl)c(O)c(Cl)c1 [GW406108X]	0.17
CNC(=O)c1cccc(-c2ccc3c(N4CCOC[C@@H]4C)nc(N4CCOC[C@@H]4C)nc3n2)c1	-0.39
Cc1[nH]nc2ccc(-c3cncc(OCC(N)Cc4c[nH]c5ccccc45)c3)cc12 (centres undefined)	0.08
O=C(Nc1cc(-c2cn[nH]c2)ccc1N1CCOCC1)c1ccc(-c2ccc3ncccc3c2)o1	0.04
CC#CC(=O)N1CCN(c2nc(-c3ccc(Oc4ccccc4)cc3)c(C(N)=O)s2)CC1	0.6
C[C@@H](COCCC(=O)N1CCN(c2ncc(C(F)(F)F)cn2)CC1)Nc1cn[nH]c(=O)c1C(F)(F)F	0.9
O=C(NNC(=O)c1ccc(CNS(=O)(=O)c2ccc(F)c(Cl)c2)cc1)c1ccccc1	0.87
CN1CCc2cc(Nc3ncc(C(F)(F)F)c(NCc4cc[nH]n4)n3)ccc2C1	0.47

Form: Entry = CCO[C@H](COc1ccc(C(F)(F)F)cc1)CSc1ccc(OCC(=O)[O-])c(C)c1.[Na+] | System = HEK-293T | Growth Rate = ____
0.72
